Would you kindly list Times of activities in 2 h after drug administration/10 min for each of these compounds?
Test system: Kunming mice
Assay: Influence on autonomic activity of normal mice (ZIL-2 mice autonomic activity meter, counts within 10 min)
Type: in vivo
Conditions: intragastric, 50 mg/kg, 2 h after administration, x ± s, n = 10

The cases that follow already have their Times of activities in 2 h after drug administration/10 min on record.
INSERT INTO results (compound, result) VALUES
  ('CC=Cc1c(C(=O)O)cc2c(=O)cc(-c3ccc(F)c(C#N)c3)oc2c1C(=O)O [Example 34]', '263.3 ± 59.3 /10 min'),
  ('COc1cc(-c2cc(=O)c3c(OC)c(OC)c(OC)c(OC)c3o2)cc(OC)c1OC [Example 15, 5,6,7,8,3′,4′,5′-heptamethoxyl-flavone]', '239.9 ± 42.6 /10 min'),
  ('N#CSc1ccc(-c2cc(=O)c3cc(N)c(F)c(C#N)c3o2)cc1O [Example 28]', '260.8 ± 58.1 /10 min'),
  ('C=Cc1c(C#N)cc(-c2cc(=O)c3c(C=CC)cc(Cc4ccccc4)cc3o2)cc1[N+](=O)[O-] [Example 20]', '278.6 ± 47.5 /10 min'),
  ('COc1ccc(-c2cc(=O)c3c(OC)c(OC)c(OC)c(OC)c3o2)cc1 [Example 8, 5,6,7,8,4′-penta methoxyl-flavone]', '244.7 ± 53.9 /10 min');

Provide Times of activities in 2 h after drug administration/10 min values for the following items, in order.
1. CCCc1cc(-c2cc(=O)c3c(I)cc(CCS(=O)(=O)O)cc3o2)cc(C(N)=O)c1C(=O)O [Example 23]
2. COc1ccc(O)cc1-c1cc(=O)c2c(O)cc(OC)c(OC)c2o1 [Example 12]
3. COc1ccc(-c2cc(=O)c3c(O)cc(OC)c(OC)c3o2)cc1O [Example 2]

1: 244.7 ± 47.6 /10 min; 2: 168.5 ± 54.3 /10 min; 3: 254.2 ± 41.1 /10 min

---

Would you kindly list duration of sleep for each of these compounds?
Tested on: Kunming mice
Test: Influence on hypnosis effect with pentobarbital sodium doses at the threshold (50 mg/kg i.p.)
Type: in vivo
Conditions: 50 mg/kg intragastric single dose, pentobarbital sodium 50 mg/kg i.p. 60 min later, x ± s, n = 10
Just the number plus its unit, please.

The cases that follow already have their duration of sleep on record.
INSERT INTO results (compound, result) VALUES
  ('C=Cc1cc(-c2cc(=O)c3c(C4CCSC4)cc(C(N)=O)cc3o2)cc(N)c1CC (stereo not drawn)', '45.62 ± 21.08 min'),
  ('CC=Cc1cc(C(=O)O)c2c(=O)cc(-c3cc(C#N)c(F)c(C(=O)O)c3)oc2c1', '37.78 ± 14.02 min'),
  ('COc1cc(-c2cc(=O)c3c(OC)c(OC)c(OC)c(OC)c3o2)cc(OC)c1OC', '51.53 ± 21.35 min'),
  ('COc1cc(OC)c2c(=O)cc(-c3cc(OC)c(OC)c(OC)c3)oc2c1', '78.60 ± 14.67 min'),
  ('COc1ccc(C2CC(=O)c3c(O)c(OC)c(OC)c(OC)c3O2)cc1 (stereo not drawn)', '69.37 ± 20.24 min'),
  ('N#Cc1cc(-c2cc(=O)c3c(N)cc(F)cc3o2)ccc1O', '40.03 ± 20.58 min'),
  ('COc1ccc(C2CC(=O)c3c(O)c(OC)c(OC)c(OC)c3O2)cc1OC (stereo not drawn) [Example 43]', '59.98 ± 18.43 min'),
  ('CCCc1ccc(C2CC(=O)c3c(O)cc([N+](=O)[O-])cc3O2)cc1OC (stereo not drawn)', '58.53 ± 27.42 min'),
  ('COc1cc(OC)c2c(c1)OC(c1cc(OC)c(OC)c(OC)c1)CC2=O (stereo not drawn)', '47.16 ± 23.51 min'),
  ('COc1cc2c(c(OC)c1OC)OC(c1cc(OC)c(OC)c(OC)c1OC)CC2=O (stereo not drawn)', '48.12 ± 22.48 min');

Provide duration of sleep values for the following items, in order.
1. CCCc1cc2c(=O)cc(-c3ccc(C(=O)O)c(C(N)=O)c3)oc2c(I)c1CCS(=O)(=O)O
2. COc1cc(OC)c2c(=O)cc(-c3ccc(OC)c(OC)c3)oc2c1 [Example 7, 5,7,3′,4′-tetramethoxyl-flavone]
3. COc1cc(OC)c2c(c1)OC(c1cc(OC)c(OC)c(OC)c1OC)CC2=O (stereo not drawn)

57.54 ± 28.39 min
79.27 ± 21.17 min
27.79 ± 26.78 min

Provide duration of sleep values for the following items, in order.
1. COc1ccc(C2CC(=O)c3c(O)cccc3O2)cc1O (stereo not drawn)
2. COc1cc(OC)c2c(=O)cc(-c3ccccc3O)oc2c1OC [Example 3, 2′-hydroxyl-5,7,8-trimethoxyl-flavone]

1: 57.24 ± 17.30 min; 2: 56.76 ± 24.86 min

---

Tested on: Kunming mice
Assay: Influence on autonomic activity of normal mice (ZIL-2 mice autonomic activity meter, counts within 10 min)
Assay type: in vivo
Conditions: intragastric, 50 mg/kg, 1 h after administration, x ± s, n = 10
metric: Times of activities in 1 h after drug administration/10 min

The cases that follow already have their Times of activities in 1 h after drug administration/10 min on record.
INSERT INTO measurements (compound, result) VALUES
  ('CC=Cc1cc(C(=O)O)c2c(=O)cc(-c3ccc(C#N)c(C(=O)O)c3)oc2c1', '245.7 ± 44.5 /10 min'),
  ('COc1cc(C2Oc3c(OC)c(OC)c(OC)c(O)c3C(=O)C2OC)c(OC)c(OC)c1OC (stereo not shown)', '248.2 ± 57.4 /10 min'),
  ('C=Cc1cc(C(N)=O)cc2oc(-c3ccc(N)c(C4CCSC4)c3)cc(=O)c12 (stereo not shown)', '259.2 ± 54.6 /10 min');

Provide Times of activities in 1 h after drug administration/10 min values for the following items, in order.
1. COc1ccc(C2CC(=O)c3c(cc(OC)c(OC)c3OC)O2)cc1 (stereo not shown)
2. CCc1cc(C2CC(=O)c3cc([N+](=O)[O-])c(SC#N)c(C4CCNC4)c3O2)ccc1C(=O)c1ccccc1 (stereo not shown)

1: 174.3 ± 49.2 /10 min; 2: 252.8 ± 62.1 /10 min

Provide Times of activities in 1 h after drug administration/10 min values for the following items, in order.
1. COc1cc(OC)c2c(=O)cc(-c3ccc(OC)c(O)c3)oc2c1 [Example 4, 3′-hydroxyl-5,7,4′-trimethoxyl-flavone]
2. COc1ccc(-c2cc(=O)c3c(OC)cc(O)cc3o2)cc1OC [Example 5, 7-hydroxyl-5,3′,4′-trimethoxyl-flavone]

1. 219.3 ± 42.7 /10 min
2. 175.4 ± 50.3 /10 min

---

System: Kunming mice
Test: Influence on autonomic activity of normal mice (ZIL-2 mice autonomic activity meter, counts within 10 min)
Assay type: in vivo
Details: intragastric, 50 mg/kg, 1 h after administration, x ± s, n = 10
Method: 1.1 Animals for experiments: Kunming mice, weighting 18.9˜22.2 g for females, and 20.2˜23.0 g for males, licensed under SCXK-(Ji) 2007-0003, and provided by The experimental animal centre, Jilin University. […] After observing the general behavior, in 1 h, 2 h and 24 h after drug administration, respectively, ZIL-2 mice autonomic activity meter is put respectively. Number of autonomic activities of each group of mice is measured within 10 min. […]
metric: Times of activities in 1 h after drug administration/10 min

The cases that follow already have their Times of activities in 1 h after drug administration/10 min on record.
INSERT INTO measurements (compound, result) VALUES
  ('COc1cc(OC)cc(C2CC(=O)c3c(OC)cc(OC)cc3O2)c1 (stereo not shown) [Example 49]', '267.9 ± 21.5 /10 min'),
  ('COc1ccc(-c2cc(=O)c3c(O)c(OC)c(OC)c(OC)c3o2)cc1OC [Example 11]', '187.2 ± 41.4 /10 min');

Provide Times of activities in 1 h after drug administration/10 min values for the following items, in order.
1. COc1cc2c(c(OC)c1OC)OC(c1cc(OC)c(OC)c(OC)c1OC)CC2=O (stereo not shown) [Example 67]
2. C=Cc1c(C#N)cc(-c2cc(=O)c3c(C=CC)cc(Cc4ccccc4)cc3o2)cc1[N+](=O)[O-] [Example 20]
3. N#Cc1cc(-c2cc(=O)c3c(N)cc(F)cc3o2)ccc1O [Example 37]
4. CCCc1cc(C2CC(=O)c3c(cc(O)cc3[N+](=O)[O-])O2)cc(-c2ccccc2)c1C1CCSC1 (stereo not shown) [Example 51]
5. CC=Cc1cc(C(=O)O)c2c(=O)cc(-c3cc(C#N)c(F)c(C(=O)O)c3)oc2c1 [Example 22]
6. C=Cc1ccc(-c2cc(=O)c3cc(C#N)c(Cc4ccccc4)c(C=CC)c3o2)cc1[N+](=O)[O-] [Example 32]
7. COc1cc(-c2cc(=O)c3c(OC)c(OC)c(OC)c(OC)c3o2)cc(OC)c1OC [Example 15, 5,6,7,8,3′,4′,5′-heptamethoxyl-flavone]
8. COc1cc(-c2cc(=O)c3c(OC)c(OC)c(OC)cc3o2)cc(OC)c1OC [Example 13, 5,6,7,3′,4′,5′-hexamethoxyl-flavone]

1. 247.2 ± 44.5 /10 min
2. 283.7 ± 51.3 /10 min
3. 279.7 ± 46.3 /10 min
4. 143.3 ± 64.7 /10 min
5. 299.4 ± 42.7 /10 min
6. 270.2 ± 59.3 /10 min
7. 254.7 ± 41.2 /10 min
8. 280.7 ± 61.3 /10 min

The origin of these recorded values is patent US9669003B2.
